- Test system: Salmonella enteritidis
- procedure_summary: MIC, serial dilution method (CLSI)
- Assay type: cell-based
- study_conditions: Salmonella enterica, ENTERITIDIS, 24 h; read-out: MIC
In this section, each of the molecules is paired with its reported MIC.

molecule: C[N+](C)(C)CCCN1c2ccccc2Sc2ccc(Cl)cc21.[I-] [Compound S2]
MIC [µg/mL]: 256
--
molecule: CCCCC[N+]1(C)CCCCC1CCN1c2ccccc2Sc2ccc(SC)cc21.[Br-] (stereo not drawn) [Compound S28]
MIC [µg/mL]: 64
--
molecule: CN(C)CC/C=C1/c2ccccc2Sc2ccc(Cl)cc21.Cl [Compound S34, reference compound]
MIC [µg/mL]: 128
--
molecule: CC(C)CC[N+](C)(C)CCCN1c2ccccc2Sc2ccc(Cl)cc21.[Br-] [Compound S5]
MIC [µg/mL]: 128
--
molecule: C=CC[N+]1(C)CCCCC1CCN1c2ccccc2Sc2ccc(SC)cc21.[Br-] (stereo not drawn) [Compound S42]
MIC [µg/mL]: 128
--
molecule: CSc1ccc2c(c1)N(CCC1CCCC[N+]1(C)C(C)C)c1ccccc1S2.[Br-] (stereo not drawn) [Compound S26]
MIC [µg/mL]: 128

====

- System: Salmonella enteritidis
- procedure_summary: MIC, serial dilution method (CLSI)
- Type: cell-based
- study_conditions: Salmonella enterica, ENTERITIDIS, 24 h; read-out: MIC
- Procedure: These inoculums were each in diluted 1:100 in Müller Hinton (MH) broth (Sigma, Copenhagen, Denmark). From the diluted inoculums 100 μl was transferred to each well in a 96-well plate and mixed with the compound to be MIC determined. The plate was incubated for 24 hours at 37° C. (without shaking). The MIC value was determined as the lowest concentration in which no bacterial growth could be visually detected. All MIC determinations were done in duplicates. […]
In this section, each of the compounds is paired with its reported MIC.

compound: CC(C)CC[N+](C)(C)C(C)CN1c2ccccc2Sc2ccccc21.[Br-] (centres unmarked) [Compound S16]
measured_target: Salmonella enteritidis
MIC: 128 µg/mL

compound: CCCCC[N+](C)(C)CC/C=C1/c2ccccc2Sc2ccc(Cl)cc21.[Br-] [Compound S38]
measured_target: Salmonella enteritidis
MIC: 64 µg/mL

compound: CCCCCCCCCCCC[N+]1(C)CCCCC1CCN1c2ccccc2Sc2ccc(SC)cc21.[Br-] (centres unmarked) [Compound S29]
measured_target: Salmonella enteritidis
MIC: 64 µg/mL

compound: CC(CN1c2ccccc2Sc2ccccc21)[N+](C)(C)C.[I-] (centres unmarked) [Compound S13]
measured_target: Salmonella enteritidis
MIC: 128 µg/mL

compound: CC(C)[N+](C)(C)C(C)CN1c2ccccc2Sc2ccccc21.[Br-] (centres unmarked) [Compound S15]
measured_target: Salmonella enteritidis
MIC: 128 µg/mL

compound: C=CC[N+](C)(C)C(C)CN1c2ccccc2Sc2ccccc21.[Br-] (centres unmarked) [Compound S41]
measured_target: Salmonella enteritidis
MIC: 256 µg/mL

compound: C=CC[N+](C)(C)CCCN1c2ccccc2Sc2ccc(Cl)cc21.[Br-] [Compound S40]
measured_target: Salmonella enteritidis
MIC: 128 µg/mL

compound: CCCCCCCCCCCC[N+](C)(C)CCCN1c2ccccc2Sc2ccc(Cl)cc21.[Br-] [Compound S7]
measured_target: Salmonella enteritidis
MIC: 16 µg/mL

compound: CSc1ccc2c(c1)N(CCC1CCCC[N+]1(C)CCC(C)C)c1ccccc1S2.[Br-] (centres unmarked) [Compound S27]
measured_target: Salmonella enteritidis
MIC: 128 µg/mL

compound: CC(C)CC[N+](C)(C)CC/C=C1/c2ccccc2Sc2ccc(Cl)cc21.[Br-] [Compound S37]
measured_target: Salmonella enteritidis
MIC: 64 µg/mL

compound: CC(CN1c2ccccc2Sc2ccccc21)N(C)C.Cl (centres unmarked) [Compound S12, reference compound]
measured_target: Salmonella enteritidis
MIC: 256 µg/mL

compound: CCCCC[N+](C)(C)CCCN1c2ccccc2Sc2ccc(Cl)cc21.[Br-] [Compound S6]
measured_target: Salmonella enteritidis
MIC: 256 µg/mL

compound: CCCCC[N+](C)(C)C(C)CN1c2ccccc2Sc2ccccc21.[Br-] (centres unmarked) [Compound S17]
measured_target: Salmonella enteritidis
MIC: 64 µg/mL

compound: CC[N+]1(C)CCCCC1CCN1c2ccccc2Sc2ccc(SC)cc21.[Br-] (centres unmarked) [Compound S25]
measured_target: Salmonella enteritidis
MIC: 256 µg/mL

compound: CN(C)CCCN1c2ccccc2Sc2ccc(Cl)cc21.Cl [Compound S1, reference compound]
measured_target: Salmonella enteritidis
MIC: 64 µg/mL

compound: CCCCCCCCCCCC[N+](C)(C)C(C)CN1c2ccccc2Sc2ccccc21.[Br-] (centres unmarked) [Compound S18]
measured_target: Salmonella enteritidis
MIC: 64 µg/mL

compound: CC[N+](C)(C)CCCN1c2ccccc2Sc2ccc(Cl)cc21.[Br-] [Compound S3]
measured_target: Salmonella enteritidis
MIC: 256 µg/mL

Recorded values, source patent US20220313656A1.
